ASSAYED SYSTEM: Cin5 (UniProt P40917)
Sequence: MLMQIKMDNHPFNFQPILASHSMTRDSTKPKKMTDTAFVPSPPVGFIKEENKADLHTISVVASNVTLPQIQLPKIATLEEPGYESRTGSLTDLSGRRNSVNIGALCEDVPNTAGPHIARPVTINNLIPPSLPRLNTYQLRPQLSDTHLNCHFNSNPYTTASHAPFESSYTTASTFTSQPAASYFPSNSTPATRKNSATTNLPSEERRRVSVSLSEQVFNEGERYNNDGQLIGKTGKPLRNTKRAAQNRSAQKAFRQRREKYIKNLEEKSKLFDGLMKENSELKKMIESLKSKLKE
PROTOCOL SUMMARY: PBM E-score (8-mer binding enrichment) (E-score (-0.5 to 0.5)); higher = stronger / more preferred TF binding
TEST SETTINGS: protein concentration: 100 nM; construct: GST-full length
The full ranking holds about 33,000 sequences; the median of “E-score (-0.5 to 0.5)” is about -0.0059, and the highest 2% start at about 0.26. The sample as a whole holds a higher share of the highest values than the screen did.
QUANTITY NAME: PBM E-score

Request: State the recorded PBM E-score for this entry: CAGGTACC
Result: -0.324

Request: Try the sequence ATGATTTG
Result: 0.123

Request: Try the sequence ACTGTAAG
Result: 0.143

Request: Try the sequence CTATTTTC
Result: 0.0963

Request: Try the sequence AGCAGAGA
Result: 0.0498

Request: Try the sequence AATGTAAT
Result: 0.301

Request: Try the sequence CAATCTGC
Result: -0.0434

Request: Try the sequence ATGATTTA
Result: 0.268

Request: Try the sequence AATGCAAC
Result: 0.0401

Request: Try the sequence ATTACAAA
Result: 0.306

Request: Try the sequence ATAGTTGA
Result: 0.121

Request: Try the sequence ACGGCCGA
Result: 0.0311

Request: Try the sequence ATATTTTA
Result: 0.201

Request: Try the sequence ATTACAAG
Result: 0.131

Request: Try the sequence TGCTGCCA
Result: -0.0641

Request: Try the sequence CACATGTG
Result: -0.00999

Request: Try the sequence ATTTATAA
Result: 0.299

Request: Try the sequence AACATACT
Result: 0.0533

Request: Try the sequence TCAATCAA
Result: 0.173

Request: Try the sequence GAAATCAC
Result: 0.149

Request: Try the sequence CCCTGTTC
Result: -0.265

Request: Try the sequence GATTCACA
Result: 0.0537

Request: Try the sequence ATTTATAC
Result: 0.253

Request: Try the sequence AATGCATA
Result: 0.116

Request: Try the sequence AGAGCCTG
Result: -0.163

Request: Try the sequence TAGTAAAA
Result: 0.137

Request: Try the sequence CTAGCTAA
Result: 0.0272

Request: Try the sequence ATAGTTGG
Result: -0.0107

Request: Try the sequence AGATCACT
Result: 0.112

Request: Try the sequence AATGCATT
Result: 0.259

Request: Try the sequence AATTCACG
Result: -0.0153

Request: Try the sequence ACAGCTTA
Result: 0.195

Request: Try the sequence AATGCATG
Result: 0.183

Request: Try the sequence TTAATCAA
Result: 0.166

Request: Try the sequence TAGTAATA
Result: 0.27

Request: Try the sequence AATGTAAG
Result: 0.319

Request: Try the sequence GTAATCAA
Result: 0.392

Request: Try the sequence GTAATCAC
Result: 0.321

Request: Try the sequence GAAATCAA
Result: 0.167

Request: Try the sequence CTAATCAA
Result: 0.301

Request: Try the sequence GCGCAGAC
Result: -0.178

Request: Try the sequence ATCATAAA
Result: 0.131

Request: Try the sequence GACTGCCC
Result: -0.188

Request: Try the sequence ACTGTCGG
Result: -0.186

Request: Try the sequence CTGATTTA
Result: 0.0451

Request: Try the sequence CAGTAATA
Result: 0.254
